System: HepG2
assay.notes: Antiproliferative activity against human HepG2 cells by MTT assay
Type: functional, cell-based
Could you please report measured pIC50 for the items listed next?
Give bare numbers, as −log10 of the molar value.

• COc1cc([C@@H]2c3cc4c(cc3[C@@H](O[C@@H]3O[C@@H]5CO[C@@H](C)O[C@H]5[C@H](O)[C@H]3O)[C@H]3COC(=O)[C@H]23)OCO4)cc(OC)c1O [ETOPOSIDE] = 4.68

Answer for every listed entry: what is its pIC50? The entries follow.
1. N#Cc1ncn(Cc2ccccc2Cl)c1/N=C/c1ccccc1[N+](=O)[O-]
2. N#Cc1ncn(Cc2ccccc2Cl)c1/N=C/c1ccc(O)cc1
3. N#Cc1ncn(Cc2ccccc2Cl)c1/N=C/c1c[nH]c2ccccc12
4. N#Cc1ncn(Cc2ccccc2Cl)c1/N=C/c1cc(Cl)cc(Cl)c1O
5. COc1ccc(OC)c(/C=N/c2c(C#N)ncn2Cc2ccccc2Cl)c1

### Response
1: 4.40; 2: 4.42; 3: 4.82; 4: 4.92; 5: 4.70

Reported pIC50 ( `N#Cc1ncn(Cc2ccccc2Cl)c1/N=C/c1ccc(Cl)cc1` ) = 4.51
